Test system: Plasmodium berghei
Experiment: Screen against P. berghei liver stage (PbLuc), transformed with Luciferase, at 10uM
Type: functional, HepG2
Details: tested at 10 uM
Out of some 69,000 compounds screened, about 8,600 (12%) showed an effect of 50% or more. Only a selection was taken, and strong results are over-represented in it overall.
Exercise: for every item that follows, state its recorded INHIBITION.
Numbers only, in %.

Task item: // lookup INHIBITION | system=Plasmodium berghei | key= Cc1cc(=O)c(C(=O)N2CCCCC2c2ccc(F)cc2)c[nH]1 (stereo unspecified)
Reply: -4.37

Task item: Observed INHIBITION on Plasmodium berghei for CS(=O)(=O)NCCNc1ncnc2cccc(F)c12 , please.
Reply: 24.9

Count: 4. Required value per item: INHIBITION.
1. Cc1cc2[nH]cc(C(=O)N3CCCCC3c3ccc(F)cc3)c(=O)n2n1 (stereo unspecified)
2. Cc1nc2[nH]cc(C(=O)N3CCCCC3c3ccc(F)cc3)c(=O)n2n1 (stereo unspecified)
3. CC(C)CCC(=O)NCc1ccc(N2CCCCC2)cc1
4. Fc1cccc2ncnc(NCCCc3ccncc3)c12

Reply:
1: 17.8; 2: 57.1; 3: 15.5; 4: 73

Cited source for all entries: ChEMBL document CHEMBL4513216
